# test_method_notes: Cytotoxicity against mouse BV2 cells assessed as cell viability at 10 uM measured after 24 hrs by MTT assay
# Assay type: cell-based, BV-2
# assay_setup: read-out: Activity

# compound, units_symbol, viability at 24 h, 10 µM
measured = [
    ("C/C1=C/C=C(/C(C)C)[C@@H](O)C/C(C)=C/CC/C(C)=C/CC1", "%", 103),
    ("C=C1CC/C=C(\\C)C[C@H](OC(C)=O)/C(C(C)C)=C\\C=C(/C)CC[C@H]1O", "%", 108),
    ("C/C1=C\\C=C(\\C(C)C)[C@@H](O)C[C@]2(C)O[C@H]2CC/C(C)=C/CC1", "%", 101),
    ("CC(=O)O[C@H]1C/C(C)=C/CCC(C)(O)/C=C/C/C(C)=C/C=C\\1C(C)C (stereo partly drawn)", "%", 97.2),
    ("C/C1=C\\CC/C(C)=C/C=C(/C(C)C)[C@@H](O)C[C@@](C)(OO)/C=C/C1", "%", 104),
    ("CC(=O)OC/C1=C\\CC/C(C)=C/CC[C@](C)(O)[C@H]2C=C(C(C)C)[C@H](C1)O2", "%", 102),
    ("C/C1=C\\[C@H]2O[C@](C)(CC[C@H]2C(C)C)[C@@H](O)CC/C(C)=C/CC1", "%", 99.9),
    ("C/C1=C\\C=C(\\C(C)C)CC/C(C)=C/CC/C(C)=C/CC1", "%", 100),
    ("C/C1=C\\C=C(\\C(C)C)CC/C(C)=C/CCC(C)(O)/C=C/C1 (stereo not drawn)", "%", 101),
    ("CC(=O)OC/C1=C\\CC/C(C)=C/CC/C(C)=C/C=C(/C(C)C)[C@@H](O)C1", "%", 111),
    ("C=C1CC/C=C(\\C)C[C@H](O)/C(C(C)C)=C\\C=C(/C)CC[C@H]1O", "%", 102),
    ("C=C1C[C@H](O)/C(C(C)C)=C\\C=C(/C)CC/C=C(\\C)CC[C@H]1O", "%", 96),
    ("C=C1C[C@H](O)/C(C(C)C)=C\\C=C(/C)CC/C=C(\\C)CC[C@@H]1OO", "%", 103),
    ("C/C1=C\\CC[C@](C)(O)/C=C/[C@H](C(C)C)CC/C(C)=C/CC1", "%", 106),
    ("C/C1=C\\CC/C(C)=C/C=C(/C(C)C)[C@@H](O)C[C@](C)(O)/C=C/C1", "%", 95.2),
    ("C/C1=C\\CC[C@](C)(O)[C@H]2C=C(C(C)C)[C@H](C/C(C)=C/CC1)O2", "%", 99.2),
    ("C/C1=C\\C=C(\\C(C)C)[C@@H](O)[C@H](O)/C(C)=C/CC/C(C)=C/CC1", "%", 101),
    ("C/C1=C\\C=C(\\C(C)C)[C@@H](O)C/C(C)=C/CC/C(C)=C/CC1", "%", 106),
]
